Attribute: log10(IC50)
# system.under.test: Indoleamine 2,3-dioxygenase 1 (Homo sapiens)
# Sequence (P14902 whole entry): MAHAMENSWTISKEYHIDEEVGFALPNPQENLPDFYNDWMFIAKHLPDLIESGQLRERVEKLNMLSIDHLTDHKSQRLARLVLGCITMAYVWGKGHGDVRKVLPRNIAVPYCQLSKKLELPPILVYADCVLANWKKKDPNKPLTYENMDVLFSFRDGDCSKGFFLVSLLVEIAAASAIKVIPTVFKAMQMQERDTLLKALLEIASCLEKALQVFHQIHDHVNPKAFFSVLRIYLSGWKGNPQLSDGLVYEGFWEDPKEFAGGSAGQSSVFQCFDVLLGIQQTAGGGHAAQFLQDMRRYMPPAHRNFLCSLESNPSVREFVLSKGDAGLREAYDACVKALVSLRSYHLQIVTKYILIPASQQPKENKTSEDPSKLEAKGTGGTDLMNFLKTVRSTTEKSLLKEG
# test.description: Inhibition of IDO1 (unknown origin) using L-tryptophan substrate incubated for 60 mins by HPLC
# test.context: read-out: IC50
Please be aware that the numbers have been log10-transformed from IC50 in µM.

Recorded log10(IC50) for NNC(=O)c1nn(-c2ccccc2)c(=O)c2c(N)scc12 on Indoleamine 2,3-dioxygenase 1 (Homo sapiens) was 1.11

Recorded log10(IC50) for O=c1ccsn1-c1cccc(Cl)c1F on Indoleamine 2,3-dioxygenase 1 (Homo sapiens) was 1.04

Recorded log10(IC50) for Clc1ccc(CO/N=C(\Cn2ccnc2)c2ccc(Cl)cc2Cl)c(Cl)c1 [OXICONAZOLE] on Indoleamine 2,3-dioxygenase 1 (Homo sapiens) was 1.45

Recorded log10(IC50) for N=C(N)SCc1nc(-c2ccc(Cl)cc2)no1 on Indoleamine 2,3-dioxygenase 1 (Homo sapiens) was -0.05

Recorded log10(IC50) for N#CC(C(=O)Nc1cccc(C(F)(F)F)c1)C(=S)Nc1ccccc1Cl (stereo unspecified) on Indoleamine 2,3-dioxygenase 1 (Homo sapiens) was 0.85

Recorded log10(IC50) for COC(=O)/C(C#N)=C1/C(=O)Nc2ccccc21 on Indoleamine 2,3-dioxygenase 1 (Homo sapiens) was 0.26

====

# test.description: Solubility of the compound in pH 6.5 phosphate buffer containing 5% DMSO
# test.context: phosphate buffer containing 5% DMSO
metric: solubility (µM)
Reply numerically in µM, unit not repeated.

[[record]]
compound = "NNC(=O)c1nn(-c2ccccc2)c(=O)c2c(N)scc12"
endpoint_unit = "µM"
val = 1000

[[record]]
compound = "O=C(CC(=O)c1cccnc1)c1cccnc1"
endpoint_unit = "µM"
val = 1000

[[record]]
compound = "Clc1ccc(COC(Cn2ccnc2)c2ccc(Cl)cc2Cl)c(Cl)c1 (stereo not drawn) [MICONAZOLE]"
endpoint_unit = "µM"
val = 10

[[record]]
compound = "COC(=O)C1=C(C)NC(C)=C(C(=O)OCC(C)C)C1c1ccccc1[N+](=O)[O-] (stereo not drawn) [NISOLDIPINE]"
endpoint_unit = "µM"
val = 50

[[record]]
compound = "CSC1=NNC(c2ccccn2)S1 (stereo not drawn)"
endpoint_unit = "µM"
val = 100


Lab note: measured solubility of CCN(CC)C(=S)SSC(=S)N(CC)CC was 100

Lab note: measured solubility of CCN(CC)c1ccc(NC(=O)C2CCCCC2)c(N(CC)CC)n1 was 25

Lab note: measured solubility of N#CC(C(=O)Nc1cccc(C(F)(F)F)c1)C(=S)Nc1ccccc1Cl (stereo not drawn) was 1000

Lab note: measured solubility of Clc1ccc(CCC(Cn2ccnc2)Sc2c(Cl)cccc2Cl)cc1 (stereo not drawn) [BUTOCONAZOLE] was 10

Lab note: measured solubility of O=c1ccsn1-c1cccc(Cl)c1F was 1000

====

# test.description: Cytotoxicity against mouse P815B cells after 24 hrs by MTS/PMS assay
# test.context: p815b
Attribute: CC50 at 24 h
Reply numerically in µM, unit not repeated.

[[record]]
compound = "Clc1ccc(COC(Cn2ccnc2)c2ccc(Cl)cc2Cl)c(Cl)c1 (centres undefined) [MICONAZOLE]"
endpoint_unit = "µM"
val = 10

[[record]]
compound = "Clc1ccc(CSC(Cn2ccnc2)c2ccc(Cl)cc2Cl)cc1 (centres undefined) [SULCONAZOLE]"
endpoint_unit = "µM"
val = 10


Lab note: measured CC50 at 24 h of Clc1ccc(CO/N=C(\Cn2ccnc2)c2ccc(Cl)cc2Cl)c(Cl)c1 [OXICONAZOLE] was 10

All values here come from ChEMBL document CHEMBL3351924.
